B1: ZNF263 (parent)
chain: HLTRHQRTHTGEKPYKCTLCGENF

Variants of: B1
protocol: protein stability index of a GFP-peptide fusion (GPS, HEK-293T) (PSI 1-6); higher = more stable;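 note: lentivirally expressed fusions sorted by FACS into six bins by GFP to DsRed ratio, PSI derived from sequencing read proportions per bin multiplied by bin number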
conditionDetails: c terminus: a fixed tail appended
Exercise: state measured protein stability index for each of the variants provided.
Lab note: write the figure by itself, no unit.

[in] # return recorded protein stability index for input F24L
[out] 3.44

[in] # return recorded protein stability index for input H9L
[out] 2.51

[in] # return recorded protein stability index for input K16G
[out] 3.19

[in] # return recorded protein stability index for input L2N
[out] 3.73

[in] # return recorded protein stability index for input H9A
[out] 2.67

[in] # return recorded protein stability index for input T10M
[out] 2.48

[in] # return recorded protein stability index for input Y15A
[out] 3.23

[in] # return recorded protein stability index for input T3Q
[out] 3.28

[in] # return recorded protein stability index for input E12R
[out] 2.55

[in] # return recorded protein stability index for input C17Q
[out] 3.46

[in] # return recorded protein stability index for input T10V
[out] 2.45

[in] # return recorded protein stability index for input T18P
[out] 2.4

[in] # return recorded protein stability index for input T18E
[out] 3.78

[in] # return recorded protein stability index for input Y15N
[out] 3.29

[in] # return recorded protein stability index for input C17R
[out] 2.98

[in] # return recorded protein stability index for input H5N
[out] 2.34

[in] # return recorded protein stability index for input L19A
[out] 3.23

[in] # return recorded protein stability index for input R7P
[out] 2.63

[in] # return recorded protein stability index for input T8F
[out] 2.46

[in] # return recorded protein stability index for input T3A
[out] 2.88

[in] # return recorded protein stability index for input Q6F
[out] 2.08

[in] # return recorded protein stability index for input C17A
[out] 3.24

[in] # return recorded protein stability index for input T10C
[out] 2.96

[in] # return recorded protein stability index for input L19E
[out] 3.36

[in] # return recorded protein stability index for input R4P
[out] 3.76

[in] # return recorded protein stability index for input T3M
[out] 2.63

[in] # return recorded protein stability index for input N23C
[out] 3.13

[in] # return recorded protein stability index for input F24Q
[out] 2.88

[in] # return recorded protein stability index for input R4C
[out] 3.67

[in] # return recorded protein stability index for input L2W
[out] 2.71

[in] # return recorded protein stability index for input K16F
[out] 2.7

[in] # return recorded protein stability index for input C17F
[out] 2.44

[in] # return recorded protein stability index for input L19W
[out] 2.75

[in] # return recorded protein stability index for input L2V
[out] 3.39

[in] # return recorded protein stability index for input T8H
[out] 2.78

[in] # return recorded protein stability index for input E22G
[out] 2.31

[in] # return recorded protein stability index for input H5L
[out] 2.09

[in] # return recorded protein stability index for input H9T
[out] 3.04

[in] # return recorded protein stability index for input T10G
[out] 2.92

[in] # return recorded protein stability index for input H9Q
[out] 2.67

[in] # return recorded protein stability index for input H1A
[out] 3.07

[in] # return recorded protein stability index for input G21W
[out] 2.23

[in] # return recorded protein stability index for input Q6N
[out] 2.46

[in] # return recorded protein stability index for input Q6C
[out] 3.36

[in] # return recorded protein stability index for input E12I
[out] 2.11

[in] # return recorded protein stability index for input P14I
[out] 2.9

[in] # return recorded protein stability index for input L19I
[out] 3.15

[in] # return recorded protein stability index for input K13A
[out] 3.28

[in] # return recorded protein stability index for input Y15H
[out] 3.24

[in] # return recorded protein stability index for input R4D
[out] 4.07

[in] # return recorded protein stability index for input G21Y
[out] 2.97

[in] # return recorded protein stability index for input E12W
[out] 1.87

[in] # return recorded protein stability index for input H1T
[out] 2.56

[in] # return recorded protein stability index for input P14R
[out] 2.9

[in] # return recorded protein stability index for input E22Y
[out] 2.39

[in] # return recorded protein stability index for input L19N
[out] 3.68

[in] # return recorded protein stability index for input R7G
[out] 3.39

[in] # return recorded protein stability index for input T8Q
[out] 3.41

[in] # return recorded protein stability index for input T8R
[out] 3.49

[in] # return recorded protein stability index for input R7A
[out] 2.94

[in] # return recorded protein stability index for input H5A
[out] 2.69
